Where these numbers come from: patent US20260151354A1

# assay-remarks: in vivo
# settings: male, Beagle, dog, po, 3 mg/kg, AUC0-∞ Mean
result-type: AUC(0-inf) (ng·h/mL)

- O=C1/C(=C/c2ccccc2C(F)(F)F)CCC/C1=C\c1ccccc1C(F)(F)F: 35.8

====

# assay-remarks: in vivo
# settings: male, Beagle, dog, po, 3 mg/kg, MRTlast Mean
result-type: MRT last (h)

- O=C1/C(=C/c2ccccc2C(F)(F)F)CCC/C1=C\c1ccccc1C(F)(F)F: 1.71

====

# assay-remarks: in vivo
# settings: male, Beagle, dog, iv, 1 mg/kg, t1/2
result-type: half-life (min)

* O=C1/C(=C/c2ccccc2C(F)(F)F)CCC/C1=C\c1ccccc1C(F)(F)F [Example C66] | 33.7

====

# assay-remarks: in vivo
# settings: male, Beagle, dog, po, 3 mg/kg, MRTlast
result-type: MRT last (h)

* O=C1/C(=C/c2ccccc2C(F)(F)F)CCC/C1=C\c1ccccc1C(F)(F)F [Example C66] | 1.89

====

# assay-remarks: in vivo
# settings: male, Beagle, dog, po, 3 mg/kg, Tmax Mean
result-type: Tmax (h)

• O=C1/C(=C/c2ccccc2C(F)(F)F)CCC/C1=C\c1ccccc1C(F)(F)F [Example C66] = 1.5

====

# assay-remarks: in vivo
# settings: male, Beagle, dog, iv, 1 mg/kg, AUC0-t
result-type: AUC(0-t)

• O=C1/C(=C/c2ccccc2C(F)(F)F)CCC/C1=C\c1ccccc1C(F)(F)F = 162 ng·h/mL

====

# assay-remarks: in vivo
# settings: male, Beagle, dog, po, 3 mg/kg, AUC0-t Mean
result-type: AUC(0-t) (ng·h/mL)

* O=C1/C(=C/c2ccccc2C(F)(F)F)CCC/C1=C\c1ccccc1C(F)(F)F [Example C66] | 31.8

====

# assay-remarks: in vivo
# settings: male, Beagle, dog, iv, 1 mg/kg, AUC0-t Mean
result-type: AUC(0-t) (ng·h/mL)

* O=C1/C(=C/c2ccccc2C(F)(F)F)CCC/C1=C\c1ccccc1C(F)(F)F | 148

====

# assay-remarks: in vivo
# settings: male, Beagle, dog, po, 3 mg/kg, t1/2 Mean
result-type: half-life

* O=C1/C(=C/c2ccccc2C(F)(F)F)CCC/C1=C\c1ccccc1C(F)(F)F | 53.5 min

====

# assay-remarks: in vivo
# settings: male, Beagle, dog, iv, 1 mg/kg, Cmax Mean
result-type: Cmax (ng/mL)

- O=C1/C(=C/c2ccccc2C(F)(F)F)CCC/C1=C\c1ccccc1C(F)(F)F: 348

====

# assay-remarks: in vivo
# settings: male, Beagle, dog, iv, 1 mg/kg, AUC0-∞ Mean
result-type: AUC(0-inf) (ng·h/mL)

• O=C1/C(=C/c2ccccc2C(F)(F)F)CCC/C1=C\c1ccccc1C(F)(F)F = 149

====

# assay-remarks: in vivo
# settings: male, Beagle, dog, iv, 1 mg/kg, MRTlast
result-type: MRT last (min)

- O=C1/C(=C/c2ccccc2C(F)(F)F)CCC/C1=C\c1ccccc1C(F)(F)F: 41

====

# assay-remarks: in vivo
# settings: male, Beagle, dog, iv, 1 mg/kg, Tmax
result-type: Tmax (min)

* O=C1/C(=C/c2ccccc2C(F)(F)F)CCC/C1=C\c1ccccc1C(F)(F)F | 4.98

====

# assay-remarks: in vivo
# settings: male, Beagle, dog, iv, 1 mg/kg, t1/2 Mean
result-type: half-life (min)

* O=C1/C(=C/c2ccccc2C(F)(F)F)CCC/C1=C\c1ccccc1C(F)(F)F | 30.4
